Count overview
- TARGET_UNDER_TEST: Human Myelin Basic Protein (Homo sapiens, UniProt P02686)
- Sequence (P02686 135-304 limits assumed): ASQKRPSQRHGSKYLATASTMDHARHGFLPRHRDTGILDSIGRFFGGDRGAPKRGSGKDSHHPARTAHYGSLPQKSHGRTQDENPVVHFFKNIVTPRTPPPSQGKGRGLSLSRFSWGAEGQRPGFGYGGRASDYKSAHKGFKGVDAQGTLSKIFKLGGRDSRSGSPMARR
- EXPERIMENT_SUMMARY: phage display R3, NGS count

These solved cases illustrate the format of a correct answer.
SVLRMLN | 16
EHGYYKV | 16
ILLPSLN | 13
AITSRNA | 15

Fill in: Count of LPMRILT is ___ 16

Please do the same for SKSDAWR as well. 14
